# ASSAYED_SYSTEM: T1, human factor IX (human, UniProt P00740 47-461, 12 glutamic acid residues of the GLA domain are post-translationally γ-carboxylated)
# T1 construct: Zymogen used as analyte in SPR, reconstituted at 1 mg/ml; also called FIX; Human FIX (MW ~55 KDa)
# T1 sequence (P00740 47-461 limits assumed): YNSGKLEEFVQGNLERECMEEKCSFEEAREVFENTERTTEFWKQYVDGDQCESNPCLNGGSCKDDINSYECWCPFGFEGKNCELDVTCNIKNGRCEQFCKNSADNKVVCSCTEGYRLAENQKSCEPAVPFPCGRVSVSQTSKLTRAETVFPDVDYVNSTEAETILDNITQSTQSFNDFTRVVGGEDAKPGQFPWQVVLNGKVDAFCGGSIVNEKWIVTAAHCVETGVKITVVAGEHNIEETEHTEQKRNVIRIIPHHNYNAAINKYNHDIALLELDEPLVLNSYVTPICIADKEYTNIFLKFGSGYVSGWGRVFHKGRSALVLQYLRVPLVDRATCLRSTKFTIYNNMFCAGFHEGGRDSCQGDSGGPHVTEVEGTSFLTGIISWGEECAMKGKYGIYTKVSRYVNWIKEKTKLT
# TEST_PROTOCOL: SPR, IgG captured on anti-human IgG Fc, human FIX as analyte
koff listing for selected binders.
Answer format: numeric, s⁻¹ implied, no suffix.

[[record]]
binder = "NINA-0442.0128 (antibody, V domains shown) VH: EVQLVESGGGFVQPGGSLRLSCAVSGFTFNSYWMSWVRQAPGKGLEWVANINQDGSEKFYVASVKGRFTMSRDNAKKSVYVQMNSLRAEDTAVYYCAREGYSSQSYYGMDVWGQGTTVTVSS VL: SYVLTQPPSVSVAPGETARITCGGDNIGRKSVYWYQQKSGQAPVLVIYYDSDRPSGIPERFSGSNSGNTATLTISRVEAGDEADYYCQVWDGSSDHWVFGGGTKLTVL"
measure_name = "koff"
measure_unit = "s⁻¹"
readout_value = 0.0471

[[record]]
binder = "NINA-0456.0128 (antibody, V domains shown) VH: EVQLVESGGGFVQPGGSLRLSCAVSGFTFNSYWMSWVRQAPGKGLEWVANINQDGSEKFYVASVKGRFTMSRDNAKKSVYVQMNSLRAEDTAVYYCAREGYSSSLYYGMDVWGQGTTVTVSS VL: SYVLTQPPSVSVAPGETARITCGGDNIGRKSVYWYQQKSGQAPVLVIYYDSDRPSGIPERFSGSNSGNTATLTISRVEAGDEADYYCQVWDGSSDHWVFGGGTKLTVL"
measure_name = "koff"
measure_unit = "s⁻¹"
readout_value = 0.0396


**Query** Give its koff value. Item: NINA-0438.0128 (antibody, V domains shown) VH: EVQLVESGGGFVQPGGSLRLSCAVSGFTFNSYWMSWVRQAPGKGLEWVANINQDGSEKFYVASVKGRFTMSRDNAKKSVYVQMNSLRAEDTAVYYCAREGYSSLSYYGMDVWGQGTTVTVSS VL: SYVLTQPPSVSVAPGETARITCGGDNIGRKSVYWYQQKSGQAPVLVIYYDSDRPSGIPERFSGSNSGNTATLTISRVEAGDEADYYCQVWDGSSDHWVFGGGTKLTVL
**Result** 0.0673

The values you see were collected from patent US20220064327A1.
